test system: RXF 393 renal; test: NCI tumour cell line growth inhibition, 48 h
readout_kind: TGI

Example molecules with recorded TGI:
- COc1ccc(-c2oc3c(CC(=O)O)cccc3c(=O)c2OC)cc1: > 100 µM
- CCOC(=O)C1C(=O)CC(C)(O)C(C(=O)OCC)C1c1ccc(N(C)C)cc1 (configuration not stated): > 100 µM
- C[C@]12CCC[C@H](OC=O)C1(O)C[C@H](C(=O)O)CC2 (some centres not stated): > 100 µM
- COC(=O)[C@H](CCSC)NC(=O)c1ccc(CNC(=O)/C=C/c2cccc(Oc3ccccc3)c2)cc1: 55.4 µM
- O=C(O)C(Cc1cccs1)NC(=O)C(F)(F)F (configuration not stated): > 100 µM
- CC12CN(CC[N+](C)(C)C)CC1(C)C1CCC2O1 (configuration not stated): > 100 µM

Task: # query: TGI of entry Cc1cc(C)c(C(=O)O)c(N)c1O
Output: > 100 µM

Task: Then this molecule: CC[C@H](C)c1occ2c(O)c(C(=O)O)c(=O)cc-2c1C
Output: 33.5 µM

Task: Please answer likewise for COC(C)(C)C(O)C(O)C[C@H](C)C1CC=C2C1(C)CCC1[C@@]3(C)CCC(OC(C)=O)C(C)(C)C3CC(OC3OC(COC(C)=O)C(O)C(O)C3O)[C@@]21C (some centres not stated)
Output: > 10 µM

Task: Entry CCN1C(C)=NC2C(=O)c3ccccc3C(=O)C21 (configuration not stated) please
Output: > 100 µM

Task: // repeat for O=C1CC2[C@@H](N3CCCC3)CCC(N1Cc1ccccc1)C2(O)O (some centres not stated) and report
Output: > 100 µM

Task: Subsequent entry: CCOC(=O)c1sc2nc(SC)nc(Nc3ccc4c(c3)OCCCO4)c2c1N
Output: 41.7 µM

* * *

test system: SF-295 CNS; experiment: NCI tumour cell line growth inhibition, 48 h
// values below are reported TGI

Illustrative cases are given below, each with its answer.
- CC(=O)CC(=O)N(CCN(C(=O)CC(C)=O)c1ccccc1)c1ccccc1: > 100 µM
- O=c1ncc(-c2ccc(C(F)(F)F)cc2)c(NC2CCCCCC2)[nH]1: 34 µM
- Cc1[nH]c2c(C)ccc(C)c2c1CC(=O)O: > 100 µM
- CCCCCCCC[N+](C)(C)Cc1ccc(C[N+](C)(C)CCCCCCCC)cc1: > 100 µM
- CCOC(=O)CSc1nc(-c2ccc(OC)cc2)c(C#N)c(=O)[nH]1: > 100 µM

Task: Need TGI of O=C1c2ccccc2C(=O)N1/N=C\c1ccc(Br)cc1 , thanks.
Output: > 100 µM

Task: Continue with COc1ccc2cc(C(=O)c3ccccc3C(=O)O)ccc2c1
Output: > 100 µM

Task: Also check O=C(NO)c1cccc(OCc2ccc(Br)cc2)c1
Output: > 62.1 µM

Task: And the next one, C#C[C@@]1(O)[C@@H](CO)O[C@@H](n2cc(Cl)c3c(N)ncnc32)[C@@H]1O ?
Output: 3.2 µM

Task: Moving on to COC(=O)c1cc(Br)c(C(=O)C(Cl)(Cl)Cl)[nH]1
Output: > 100 µM

* * *

The entries below are paired with their reported TGI.
test system: MDA-MB-231 breast; assay: NCI tumour cell line growth inhibition, 48 h

- CCOC(=O)C1C(=O)CC(C)(O)C(C(=O)OCC)C1c1ccc(N(C)C)cc1 (stereo not given): > 100 µM
- O=C1CCC(=O)N1CNc1ccc2c(c1)Sc1ccccc1O2: > 100 µM
- CN(C)c1ccc(N=Nc2cccc3ccoc23)cc1: > 100 µM

Task: Which TGI is reported for this compound? CN(C(=O)OC(C)(C)C)[C@H]1CCCC[C@H]1N1CCCC1
Output: > 100 µM

Task: Entry to check: c1ccc(COCC23CCN(Cc4ccccc4)C(CC(OCc4ccccc4)C2)S3)cc1 (stereo not given)
Output: > 100 µM

Task: Here is the next compound: CN(CCc1ccc(Br)cc1)CCN1CCCCC1
Output: > 100 µM

Task: For COc1ccc(C(=O)/C=C/c2cc3ccccc3[nH]c2=O)cc1 then?
Output: > 56.4 µM

Task: Then what about the compound CS(=O)(=O)c1ccc(N/N=C/c2c(-c3ccc(S(C)(=O)=O)cc3)[nH]c3ccc(F)cc23)cc1 ?
Output: > 50 µM

Task: Proceed to NCC(=O)C(O)C(O)C(O)CO (stereo not given)
Output: > 100 µM

Task: # iterate: Cn1c(=O)n(-c2c3ccccc3c(Cl)c3ccccc23)n(C(C)(C)C)c1=O
Output: > 100 µM
